target: CRBN/DDB1 (Homo sapiens (Human), UniProt Q96SW2); conditions: His tagged CRBN+DDB1, Cy5-labeled Thalidomide probe, one hour; read-out: CRBN HTRF IC50
Sequence (Q96SW2 whole entry, species assumed): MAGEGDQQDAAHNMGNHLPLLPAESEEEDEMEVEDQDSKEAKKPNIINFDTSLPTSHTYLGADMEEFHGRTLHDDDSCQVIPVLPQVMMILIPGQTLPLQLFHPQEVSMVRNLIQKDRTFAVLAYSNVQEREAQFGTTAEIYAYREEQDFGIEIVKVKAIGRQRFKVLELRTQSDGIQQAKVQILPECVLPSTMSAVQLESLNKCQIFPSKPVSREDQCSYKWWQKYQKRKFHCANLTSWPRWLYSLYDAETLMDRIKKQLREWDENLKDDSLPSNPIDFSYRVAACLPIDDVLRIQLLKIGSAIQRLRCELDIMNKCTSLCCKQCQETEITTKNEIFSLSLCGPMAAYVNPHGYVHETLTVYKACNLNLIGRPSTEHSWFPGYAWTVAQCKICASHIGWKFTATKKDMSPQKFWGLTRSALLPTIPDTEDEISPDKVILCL
Sequence (Q16531 whole entry partner, species assumed): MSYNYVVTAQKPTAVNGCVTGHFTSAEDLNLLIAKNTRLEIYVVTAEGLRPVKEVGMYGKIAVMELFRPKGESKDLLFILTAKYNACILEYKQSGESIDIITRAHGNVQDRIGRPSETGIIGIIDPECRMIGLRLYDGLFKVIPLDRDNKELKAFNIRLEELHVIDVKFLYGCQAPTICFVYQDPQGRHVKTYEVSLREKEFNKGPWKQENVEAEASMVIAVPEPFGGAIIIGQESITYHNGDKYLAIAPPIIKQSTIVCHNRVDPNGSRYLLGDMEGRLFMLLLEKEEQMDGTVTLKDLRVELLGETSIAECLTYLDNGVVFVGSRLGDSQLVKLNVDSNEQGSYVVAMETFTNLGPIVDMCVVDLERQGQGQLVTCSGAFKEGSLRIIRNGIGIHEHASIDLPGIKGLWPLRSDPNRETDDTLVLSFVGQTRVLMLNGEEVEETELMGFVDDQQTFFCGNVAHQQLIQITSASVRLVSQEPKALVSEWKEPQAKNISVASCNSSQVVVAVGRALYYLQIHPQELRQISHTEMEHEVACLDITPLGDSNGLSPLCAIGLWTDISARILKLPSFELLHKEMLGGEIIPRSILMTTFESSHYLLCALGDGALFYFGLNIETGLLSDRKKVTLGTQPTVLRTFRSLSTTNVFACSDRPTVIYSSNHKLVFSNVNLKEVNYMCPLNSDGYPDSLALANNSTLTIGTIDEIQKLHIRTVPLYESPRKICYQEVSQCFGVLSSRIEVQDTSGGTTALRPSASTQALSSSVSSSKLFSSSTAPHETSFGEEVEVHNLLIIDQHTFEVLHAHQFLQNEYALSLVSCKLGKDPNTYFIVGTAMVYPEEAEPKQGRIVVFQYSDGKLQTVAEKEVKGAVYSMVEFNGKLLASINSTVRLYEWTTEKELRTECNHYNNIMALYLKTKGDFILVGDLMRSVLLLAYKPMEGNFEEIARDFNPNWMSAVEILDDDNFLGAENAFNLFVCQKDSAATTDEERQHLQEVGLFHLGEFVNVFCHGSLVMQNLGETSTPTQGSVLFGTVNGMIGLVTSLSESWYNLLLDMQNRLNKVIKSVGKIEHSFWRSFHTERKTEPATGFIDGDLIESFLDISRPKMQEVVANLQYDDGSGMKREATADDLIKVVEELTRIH
Observed Property: IC50

### Prompt # IC50 lookup, item COc1cc(N2CCC(CN3CCN4c5ccc6c(c5OC[C@@H]4C3)CN([C@@H]3CCC(=O)NC3=O)C6=O)CC2)ccc1[C@H]1c2ccc(O)cc2CC[C@H]1c1ccccc1 (stereo in doubt)
### Response 50 to 500 nM

### Prompt # IC50 lookup, item COc1cc([C@@H]2c3ccc(O)cc3CC[C@@H]2c2ccccc2)c(F)cc1N1CCC(CN2CCN3c4ccc5c(c4OC[C@H]3C2)CN([C@H]2CCC(=O)NC2=O)C5=O)CC1 (single isomer, unassigned)
### Response 50 to 500 nM

### Prompt # IC50 lookup, item `O=C1CC[C@H](N2Cc3cc4c(cc3C2=O)OC[C@H]2CN(C[C@@H]3COC5(CCN(c6ccc([C@H]7c8ccc(O)cc8CC[C@H]7c7ccccc7)cc6)CC5)C3)CCN42)C(=O)N1`
### Response 50 to 500 nM

### Prompt # IC50 lookup, item COc1cc(N2CCC3(CC2)CC(CN2CCN4c5cc6c(cc5OC[C@@H]4C2)C(=O)N([C@H]2CCC(=O)NC2=O)C6)CO3)ccc1[C@@H]1c2ccc(O)cc2CC[C@@H]1c1ccccc1 (some centres unmarked)
### Response 50 to 500 nM

### Prompt # IC50 lookup, item `COc1cc(N2CCC(CN3CC[C@]4(c5ccc(N[C@H]6CCC(=O)NC6=O)cc5)[C@H](C3)C4(F)F)CC2)ccc1[C@@H]1c2ccc(O)cc2CC[C@@H]1c1ccccc1`
### Response > 5000 nM

###

biological target: CRBN/DDB1 (Homo sapiens (Human), UniProt Q96SW2); conditions: His tagged CRBN+DDB1, Cy5-labeled Thalidomide probe, one hour; read-out: CRBN HTRF IC50
Observed Property: IC50

### Prompt # IC50 lookup, item O=C1CCC(NC(=O)c2ccc3c(n2)OC[C@H]2CN(CC4CCN(c5ccc([C@@H]6c7ccc(O)cc7CC[C@@H]6c6ccccc6)cc5)CC4)CCN32)C(=O)N1 (stereo partly shown)
### Response 500 to 5000 nM

### Prompt # IC50 lookup, item O=C1CC[C@H](N2Cc3c(ccc4c3OC[C@H]3CN(C[C@H]5COC6(C5)CN(c5ccc([C@@H]7c8ccc(O)cc8CC[C@@H]7c7ccccc7)cc5)C6)CCN43)C2=O)C(=O)N1 (single isomer, unassigned)
### Response < 50 nM

### Prompt # IC50 lookup, item COc1cc(N2CCC3(CC2)CC(CN2CCN4c5ccc6c(c5OC[C@H]4C2)CN([C@H]2CCC(=O)NC2=O)C6=O)C3)ccc1[C@@H]1c2ccc(O)cc2CC[C@@H]1c1ccccc1 (single isomer, unassigned)
### Response < 50 nM

### Prompt # IC50 lookup, item O=C1CC[C@H](N2Cc3cc4c(cc3C2=O)OC[C@@H]2CN(CC3CCC5(CC3)CN(c3ncc([C@H]6c7ccc(O)cc7CC[C@H]6c6ccccc6)cn3)C5)CCN42)C(=O)N1 (single isomer, unassigned)
### Response 500 to 5000 nM

### Prompt # IC50 lookup, item COc1cc(N2CCC3(CC2)CC(CN2CCC4(CC2)COc2c4ccc4c2CN([C@H]2CCC(=O)NC2=O)C4=O)CO3)ccc1[C@H]1c2ccc(O)cc2CC[C@H]1c1ccccc1 (stereo partly shown)
### Response < 50 nM

### Prompt # IC50 lookup, item `COc1cc(N2CCC(CN3CCC4(CC3)COc3c4ccc4c3CN([C@H]3CCC(=O)NC3=O)C4=O)CC2)ccc1[C@H]1c2ccc(O)cc2CC[C@H]1c1ccccc1`
### Response < 50 nM

### Prompt # IC50 lookup, item O=C1CCC(Nc2ccc(C34CCN(C[C@H]5COC6(CCN(c7ccc([C@@H]8c9ccc(O)cc9CC[C@@H]8c8ccccc8)cc7)CC6)C5)CC3C4(F)F)cc2)C(=O)N1 (stereo partly shown)
### Response > 5000 nM

### Prompt # IC50 lookup, item O=C1CC[C@H](N2Cc3cc4c(cc3C2=O)OC[C@@H]2CN(CC3CCC5(CC3)CN(c3ccc([C@H]6c7ccc(O)cc7CC[C@H]6c6ccccc6)cc3F)C5)CCN42)C(=O)N1 (single isomer, unassigned)
### Response 500 to 5000 nM

### Prompt # IC50 lookup, item O=C1CC[C@H](Nc2ccc(C3CCN(C[C@H]4COC5(CCN(c6ccc([C@H]7c8ccc(O)cc8CC[C@H]7c7ccccc7)cc6)CC5)C4)CC3)cc2)C(=O)N1 (single isomer, unassigned)
### Response 50 to 500 nM

### Prompt # IC50 lookup, item COc1cc(C2c3ccc(O)cc3CCC2c2ccccc2)c(F)cc1N1CCC(CN2CCN3c4ccc5c(c4OC[C@H]3C2)CN([C@H]2CCC(=O)NC2=O)C5=O)CC1 (stereo in doubt)
### Response 50 to 500 nM
